Source of measurements: ChEMBL document CHEMBL3885861

Species on record: Rattus norvegicus
ASSAY OVERVIEW: Open TG-GATES - Regimen: Single
Format: toxicity, organism-based, Sprague-Dawley
Design: regimen Single, gender Male, age 6 weeks
TEST PARAMETERS: in vivo, po, 0 mg/kg, 9 h, tissue Plasma, route gavage, dose level Control
QUANTITY KIND: AST

Observe how each entry below is paired with its result.
NC(=O)N1c2ccccc2C=Cc2ccccc21 [CARBAMAZEPINE]; 63.8 IU/L
Cn1c(=O)c2[nH]cnc2n(C)c1=O.O; 70.4 IU/L
CN(C)CCC=C1c2ccccc2CCc2ccccc21; 71.4 IU/L
NC(=O)N/N=C/c1ccc([N+](=O)[O-])o1; 79.4 IU/L

// C[C@H](CS)C(=O)N1CCC[C@H]1C(=O)O : AST value = 60.2 IU/L

* * *

Item-by-item account of MCV
Species on record: Rattus norvegicus
ASSAY OVERVIEW: Open TG-GATES - Regimen: Single
Assay type: toxicity, organism-based, Sprague-Dawley
Set-up: regimen Single, gender Male, age 6 weeks
TEST PARAMETERS: in vivo, po, 300 mg/kg, 6 h, tissue Blood, route gavage, dose level Middle
Quick reminder: number only, in fL, skip the unit.

O=C(O)c1cn(C2CC2)c2cc(N3CCNCC3)c(F)cc2c1=O [CIPROFLOXACIN]; 67.1

// CCc1cc(C(N)=S)ccn1 [ETHIONAMIDE] : MCV value = 64.7

// O=C(O)c1cc(/N=N/c2ccc(S(=O)(=O)Nc3ccccn3)cc2)ccc1O [SULFASALAZINE] : MCV value = 63.1

// C[C@H](CS)C(=O)N1CCC[C@H]1C(=O)O [CAPTOPRIL] : MCV value = 63.5

// Clc1ccccc1CN1CCc2sccc2C1 [TICLOPIDINE] : MCV value = 61.3

* * *

Item-by-item account of Ht
Organism: Rattus norvegicus
ASSAY OVERVIEW: Open TG-GATES - Regimen: Single
Assay type: toxicity, organism-based, Sprague-Dawley
Parameters: regimen Single, gender Male, age 6 weeks
TEST PARAMETERS: in vivo, po, 100 mg/kg, 3 h, tissue Blood, route gavage, dose level Low
Quick reminder: number only, in %, skip the unit.

Observe how each entry below is paired with its result.
CCc1cc(C(N)=S)ccn1 [ETHIONAMIDE]; 40.6
O=C(O)c1cn(C2CC2)c2cc(N3CCNCC3)c(F)cc2c1=O; 38.6
C[C@H](CS)C(=O)N1CCC[C@H]1C(=O)O; 40.2
O=C(O)c1cc(/N=N/c2ccc(S(=O)(=O)Nc3ccccn3)cc2)ccc1O; 38.4

Let us examine a further case.
// Clc1ccccc1CN1CCc2sccc2C1 : Ht value = 38.3

* * *

Organism: Rattus norvegicus
ASSAY OVERVIEW: Open TG-GATES - Regimen: Single
Type: toxicity, organism-based, Sprague-Dawley
Parameters: regimen Single, gender Male, age 6 weeks
TEST PARAMETERS: in vivo, po, 1000 mg/kg, 9 h, tissue Plasma, route gavage, dose level High
QUANTITY KIND: PL (mg/dL)
Quick reminder: number only, in mg/dL, skip the unit.

Observe how each entry below is paired with its result.
O=C(O)c1cc(/N=N/c2ccc(S(=O)(=O)Nc3ccccn3)cc2)ccc1O [SULFASALAZINE]; 137.2
CCc1cc(C(N)=S)ccn1 [ETHIONAMIDE]; 107.8
O=C(O)c1cn(C2CC2)c2cc(N3CCNCC3)c(F)cc2c1=O [CIPROFLOXACIN]; 131.4

// C[C@H](CS)C(=O)N1CCC[C@H]1C(=O)O [CAPTOPRIL] : PL value = 118.2

// Clc1ccccc1CN1CCc2sccc2C1 [TICLOPIDINE] : PL value = 141.4

* * *

Item-by-item account of KIDNEY_L
Organism: Rattus norvegicus
ASSAY OVERVIEW: Open TG-GATES - Regimen: Single
Type: toxicity, organism-based, Sprague-Dawley
Design: regimen Single, gender Male, age 6 weeks
TEST PARAMETERS: in vivo, po, 100 mg/kg, 3 h, tissue Kidney, route gavage, dose level Low
Quick reminder: number only, in g, skip the unit.

Observe how each entry below is paired with its result.
CCc1cc(C(N)=S)ccn1 [ETHIONAMIDE]; 1
Clc1ccccc1CN1CCc2sccc2C1; 1

// O=C(O)c1cc(/N=N/c2ccc(S(=O)(=O)Nc3ccccn3)cc2)ccc1O : KIDNEY_L value = 1

// C[C@H](CS)C(=O)N1CCC[C@H]1C(=O)O : KIDNEY_L value = 1

// O=C(O)c1cn(C2CC2)c2cc(N3CCNCC3)c(F)cc2c1=O : KIDNEY_L value = 0.8

* * *

Species on record: Rattus norvegicus
ASSAY OVERVIEW: Open TG-GATES - Regimen: Single
Assay type: toxicity, organism-based, Sprague-Dawley
Parameters: regimen Single, gender Male, age 6 weeks
TEST PARAMETERS: in vivo, po, 0 mg/kg, 3 h, tissue Blood, route gavage, dose level Control
Just a reminder that ties go to Not met: only Lym strictly below 80% counts as Met.

These recorded examples may help you get a feel for the data.
Cn1c(=O)c2[nH]cnc2n(C)c1=O.O [THEOPHYLLINE]; Not met
CC(=O)Oc1ccccc1C(=O)O [ASPIRIN]; Met

Now for a further compound.
Exercise: Does the reported Lym of the following compound sit strictly below 80%? CN(C)CCC=C1c2ccccc2CCc2ccccc21 [AMITRIPTYLINE]
Solution: Met

* * *

Species on record: Rattus norvegicus
ASSAY OVERVIEW: Open TG-GATES - Regimen: Daily Repeat
Format: toxicity, organism-based, Sprague-Dawley
Set-up: regimen Daily Repeat, gender Male, age 6 weeks
TEST PARAMETERS: in vivo, po, 0 mg/kg, […], tissue Plasma, route gavage, dose level Control, time 14 day
Just a reminder that ties go to label 0: only IP strictly below 7 mg/dL counts as label 1.

CSc1ccc2c(c1)N(CCC1CCCCN1C)c1ccccc1S2 (stereo not given); label 0
C[C@H](CS)C(=O)N1CCC[C@H]1C(=O)O; label 0
O=C(O)c1cn(C2CC2)c2cc(N3CCNCC3)c(F)cc2c1=O; label 0
NC(=O)N/N=C/c1ccc([N+](=O)[O-])o1; label 0
O=C(O)c1cc(/N=N/c2ccc(S(=O)(=O)Nc3ccccn3)cc2)ccc1O; label 1
CO[C@H]1/C=C/O[C@@]2(C)Oc3c(C)c(O)c4c(O)c(c(/C=N/N5CCN(C)CC5)c(O)c4c3C2=O)NC(=O)/C(C)=C\C=C\[C@H](C)[C@H](O)[C@@H](C)[C@@H](O)[C@@H](C)[C@H](OC(C)=O)[C@@H]1C; label 0

Exercise: Does the reported IP of the following compound sit strictly below 7 mg/dL? CN(C)CCC=C1c2ccccc2CCc2ccccc21
Solution: label 1

Exercise: Does the reported IP of the following compound sit strictly below 7 mg/dL? COc1ccc(Cc2nccc3cc(OC)c(OC)cc23)cc1OC
Solution: label 1

Exercise: Does the reported IP of the following compound sit strictly below 7 mg/dL? Clc1ccccc1CN1CCc2sccc2C1
Solution: label 0

Exercise: Does the reported IP of the following compound sit strictly below 7 mg/dL? COc1ccc2c(c1)c(CC(=O)O)c(C)n2C(=O)c1ccc(Cl)cc1
Solution: label 0

Exercise: Does the reported IP of the following compound sit strictly below 7 mg/dL? Cn1c(=O)c2[nH]cnc2n(C)c1=O.O
Solution: label 0

* * *

Species: Rattus norvegicus
ASSAY OVERVIEW: Open TG-GATES - Regimen: Single
Assay type: toxicity, organism-based, Sprague-Dawley
Set-up: regimen Single, gender Male, age 6 weeks
TEST PARAMETERS: in vivo, po, 300 mg/kg, 9 h, tissue Plasma, route gavage, dose level Middle
Item-by-item account of BUN
Quick reminder: number only, in mg/dL, skip the unit.

Observe how each entry below is paired with its result.
C[C@H](CS)C(=O)N1CCC[C@H]1C(=O)O; 16.8
O=C(O)c1cc(/N=N/c2ccc(S(=O)(=O)Nc3ccccn3)cc2)ccc1O; 8.8
O=C(O)c1cn(C2CC2)c2cc(N3CCNCC3)c(F)cc2c1=O; 10.2

// CCc1cc(C(N)=S)ccn1 [ETHIONAMIDE] : BUN value = 15.6

* * *

Item-by-item account of TERMINAL_BW
Species on record: Rattus norvegicus
ASSAY OVERVIEW: Open TG-GATES - Regimen: Single
Assay type: toxicity, organism-based, Sprague-Dawley
Design: regimen Single, gender Male, age 6 weeks
TEST PARAMETERS: in vivo, po, 1000 mg/kg, 9 h, route gavage, dose level High
Quick reminder: number only, in g, skip the unit.

C[C@H](CS)C(=O)N1CCC[C@H]1C(=O)O [CAPTOPRIL]; 220.7

// O=C(O)c1cc(/N=N/c2ccc(S(=O)(=O)Nc3ccccn3)cc2)ccc1O [SULFASALAZINE] : TERMINAL_BW value = 206.9

// Clc1ccccc1CN1CCc2sccc2C1 [TICLOPIDINE] : TERMINAL_BW value = 212.4

// CCc1cc(C(N)=S)ccn1 [ETHIONAMIDE] : TERMINAL_BW value = 224.3

// O=C(O)c1cn(C2CC2)c2cc(N3CCNCC3)c(F)cc2c1=O [CIPROFLOXACIN] : TERMINAL_BW value = 176.2
